biological target: Histone deacetylase 8 (Homo sapiens, UniProt Q9BY41); assay: Inhibition of HDAC8 (unknown origin) using acetyl-Gly-Ala-(N-acetyl-Lys)-amino-4-methylcoumarin as substrate measured after 30 mins by fluorescence assay
Sequence (Q9BY41 whole entry): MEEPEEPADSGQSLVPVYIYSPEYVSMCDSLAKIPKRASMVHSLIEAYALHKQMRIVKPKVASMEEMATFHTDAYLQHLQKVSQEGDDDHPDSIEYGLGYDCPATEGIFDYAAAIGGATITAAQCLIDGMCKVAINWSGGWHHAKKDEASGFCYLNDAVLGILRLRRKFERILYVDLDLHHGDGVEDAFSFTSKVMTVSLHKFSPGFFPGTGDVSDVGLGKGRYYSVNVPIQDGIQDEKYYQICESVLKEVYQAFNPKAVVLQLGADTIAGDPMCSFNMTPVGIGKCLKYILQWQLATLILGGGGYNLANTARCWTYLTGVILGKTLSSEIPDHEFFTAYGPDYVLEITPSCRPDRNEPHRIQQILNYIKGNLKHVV
Please provide measured IC50 for the entries that follow.
Give a bare numeral; the unit nM is implied.

Quick check: IC50 of `O=C(NO)c1cccc(-n2cc(CSc3ccccc3)nn2)c1` ?
53

Please report the recorded IC50 for O=C1CCC(N2C(=O)c3cccc(NCCCCCCCCCCCNC(=O)c4cccc(SCc5cn(-c6cccc(C(=O)NO)c6)nn5)c4)c3C2=O)C(=O)N1 (configuration not stated) .
372
